From: patent US6168954A

Assay: GST conjugation activity with 1,2-epoxy-3-(p-nitrophenoxy)propane (HPLC)
Format: biochemical
Details: 0.4 mM electrophilic substrate, 4 mM glutathione, 0.1 M MOPS pH 7.0, corrected for uncatalyzed reaction
OBSERVATION TYPE: Activity of soybean GST enzyme, 1,2-epoxy-3-(p-nitrophenoxy)propane (nmol/min/mg)
Use nmol/min/mg as the unit, but write only the number.

>>> reported("se6.pk0048.d7: soybean type III GST encoded by cDNA insert in clone se6.pk0048.d7 (protein) MADEVVLLDFWPSPFGMRVRIALAEKGIKYESKEEDLQNKSPLLLKMNPVHKKIPVLIHNGKPICESLVAVQYIEEVWNDRNPLLPSDPYQRAQARFWADFVDNKIFDLGRKIWTSKGEEKEAAKKEFIEALKLLEEQLGDKTYFGGDDLGFVDIALIPFDTWFKTFGSLNIESECPKFVAWAKRCLQKDSVAKSLPDQHKVYEFIMDIRKKFDIE")
9

Next:
stdin: Find the recorded Activity of soybean GST enzyme, 1,2-epoxy-3-(p-nitrophenoxy)propane belonging to se6.pk0037.h4: soybean type III GST encoded by cDNA insert in clone se6.pk0037.h4, expressed in E. coli (protein) MAATQEDVTLLGVVGSPFVCRVQIALKLKGIECKFLEENLANKSDLLLKSNPVYKKVPVFIHNEKPIAESLVIVEYIDETWKNNPILPSDPYQRSFARFWSKFIDDKIVGASWKSVFTVDEKEREKNVEESLEALQFLENELQDKRFFGGDEFGFVDIAGVFIAFSIPIFQEVAGLQLFTSEKFPKLFKWSQELINHPVVKDVLPPREPLFAFFKSLYESLSASK and report it.
stdout: 1
